# measurementTarget: T1, human BCMA on cells (human, UniProt Q02223 1-184)
# T1 construct: also called hBCMA; BCMA on NCI-H929, ARP-1, OPM-2, U266B1, MM.1S, RPMI-8226 cells
# T1 sequence: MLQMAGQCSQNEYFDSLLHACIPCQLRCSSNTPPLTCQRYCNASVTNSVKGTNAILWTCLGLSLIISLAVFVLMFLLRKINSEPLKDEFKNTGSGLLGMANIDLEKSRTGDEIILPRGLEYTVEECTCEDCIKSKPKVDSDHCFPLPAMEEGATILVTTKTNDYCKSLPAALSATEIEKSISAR
# method: FACS, NCI-H929 cells
Property: Kd; scope: individual binders

- binder: "9A8 (antibody, V domains shown, Chicken HybriFree-derived antibody; also called Antibody 30) VH: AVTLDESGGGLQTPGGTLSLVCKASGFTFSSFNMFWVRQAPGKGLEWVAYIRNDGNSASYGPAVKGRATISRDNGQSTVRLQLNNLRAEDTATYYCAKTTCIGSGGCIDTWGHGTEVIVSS VL: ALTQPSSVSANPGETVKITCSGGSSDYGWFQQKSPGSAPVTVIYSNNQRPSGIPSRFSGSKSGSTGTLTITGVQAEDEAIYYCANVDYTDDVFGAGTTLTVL"
  Kd, nM: 33
- binder: "10H1 (antibody, V domains shown, Chicken HybriFree-derived antibody; also called Antibody 45) VH: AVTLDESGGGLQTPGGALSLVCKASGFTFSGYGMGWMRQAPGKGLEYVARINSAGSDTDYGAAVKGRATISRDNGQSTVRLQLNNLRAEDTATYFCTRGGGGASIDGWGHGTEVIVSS VL: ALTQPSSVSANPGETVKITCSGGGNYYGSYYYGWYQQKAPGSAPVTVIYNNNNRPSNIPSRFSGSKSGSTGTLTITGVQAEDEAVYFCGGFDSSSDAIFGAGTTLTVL"
  Kd, nM: 0.36
